Target: TβRII-ED (residues 1-137) (Homo sapiens, UniProt P37173)
Test: competition ELISA
Format: binding
Ends that are not written are not given here.
// reported Kd for each item listed

Problem: Need Kd of MHRMPSFLPTTL [Pep2] , thanks.
Result: ~10 µM

Next, consider the following sequence.
Problem: Need Kd of LTGKNFPMFHRN [Pep1] , thanks.
Result: ~10 µM

###

Molecular target: TβRI-ED (Homo sapiens)
Sequence (P36897 25-125): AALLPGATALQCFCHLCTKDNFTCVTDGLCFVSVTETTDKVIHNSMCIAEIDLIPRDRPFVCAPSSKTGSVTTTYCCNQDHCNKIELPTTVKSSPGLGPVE
Assay: competition ELISA
Assay type: binding
pKd: −log10 of the molar value. Ends that are not written are not given here.
parameter-measured: pKd

Problem: Short answer please: pKd, TβRI-ED (Homo sapiens), entry MHRMPSFLPTTL [Pep2]
Result: ~5.00

Next, consider the following sequence.
Problem: Short answer please: pKd, TβRI-ED (Homo sapiens), entry LTGKNFPMFHRN [Pep1]
Result: ~5.00

###

Molecular target: TβRII-ED (residues 1-137) (Homo sapiens, UniProt P37173)
Assay: competition ELISA
Type: binding
Ends that are not written are not given here.
// reported pIC50 for each item listed
Notebook: values listed as pIC50 are -log10 of the concentration (mol/L).

Problem: Need pIC50 of MHRMPSFLPTTL [Pep2] , thanks.
Result: 3.56

Problem: Need pIC50 of LTGKNFPMFHRN [Pep1] , thanks.
Result: 3.81
